- Test method notes: physchem
Measure: pKa

Return reported pKa; argument: `NCc1nc2cc(S(=O)(=O)O)ccc2[nH]1`
~7.7
